- Test Summary: Stability in aqueous media (PBS pH 7.4)
- Assay type: physicochemical
- Design: unit not given here
- Stated Conditions: phosphate buffer solution (PBS); PBS pH 7.4, 37° C., samples at T=0, 4, 24, 96 h; read-out: Stability grading (t1/2)
Non-standard residues stand in square brackets, D forms with d. Residues, ends and D or L forms follow the SMILES beside them. *: point of attachment. d2Nal = N[C@H](Cc1ccc2ccccc2c1)C(=O)O; pGlu = O=C1CC[C@@H](C(=O)O)N1; tBu = CC(C)(C)*
Attribute Measured: half-life at 0.2 mg/ml

>>> observed("CCNC(=O)[C@@H]1CCCN1C(=O)[C@H](Cc1ccc(O)cc1)NC(=O)[C@H](Cc1c[nH]c2ccccc12)NC(=O)[C@@H](COC(C)(C)C)NC(=O)[C@H](Cc1ccc(O)cc1)NC(=O)[C@H](CO)NC(=O)[C@H](Cc1c[nH]c2ccccc12)NC(=O)[C@H](Cc1c[nH]cn1)NC(=O)[C@@H]1CCC(=O)N1 [Compound 12] ([pGlu]HWSY[dS](tBu)WYP-NHEt)")
"> 96"
>>> observed("N=C(N)NCCC[C@H](NC(=O)[C@H](Cc1c[nH]c2ccccc12)NC(=O)[C@@H](Cc1c[nH]c2ccccc12)NC(=O)[C@H](Cc1ccc(O)cc1)NC(=O)[C@H](CO)NC(=O)[C@H](Cc1c[nH]c2ccccc12)NC(=O)[C@H](Cc1c[nH]cn1)NC(=O)[C@@H]1CCC(=O)N1)C(=O)N1CCC[C@H]1C(=O)NCC(N)=O [Compound 66] ([pGlu]HWSY[dW]WRPG-NH2)")
"> 96"
>>> observed("CCNC(=O)[C@@H]1CCCN1C(=O)[C@H](CCCNC(=N)N)NC(=O)[C@H](Cc1c[nH]c2ccccc12)NC(=O)[C@@H](COC(C)(C)C)NC(=O)[C@H](Cc1c[nH]cn1)NC(=O)[C@H](CO)NC(=O)[C@H](Cc1c[nH]c2ccccc12)NC(=O)[C@H](Cc1c[nH]cn1)NC(=O)[C@@H]1CCC(=O)N1 [Compound 10] ([pGlu]HWSH[dS](tBu)WRP-NHEt)")
"> 96"
>>> observed("CCNC(=O)[C@@H]1CCCN1C(=O)[C@H](Cc1ccc(O)cc1)NC(=O)[C@H](CC(C)C)NC(=O)[C@@H](CC(C)C)NC(=O)[C@H](Cc1ccc(O)cc1)NC(=O)[C@H](CO)NC(=O)[C@H](Cc1c[nH]c2ccccc12)NC(=O)[C@H](Cc1c[nH]cn1)NC(=O)[C@@H]1CCC(=O)N1 [Compound 45] ([pGlu]HWSY[dL]LYP-NHEt)")
"> 96"
>>> observed("NC(=O)CNC(=O)[C@@H]1CCCN1C(=O)[C@H](Cc1ccc(O)cc1)NC(=O)[C@H](Cc1c[nH]c2ccccc12)NC(=O)[C@@H](Cc1ccc2ccccc2c1)NC(=O)[C@H](Cc1ccc(O)cc1)NC(=O)[C@H](CO)NC(=O)[C@H](Cc1c[nH]c2ccccc12)NC(=O)[C@H](Cc1c[nH]cn1)NC(=O)[C@@H]1CCC(=O)N1 [Compound 30] ([pGlu]HWSY[d2Nal]WYPG-NH2)")
"< 96"
>>> observed("CC(C)C[C@H](NC(=O)[C@@H](Cc1ccc2ccccc2c1)NC(=O)[C@H](Cc1c[nH]cn1)NC(=O)[C@H](CO)NC(=O)[C@H](Cc1c[nH]c2ccccc12)NC(=O)[C@H](Cc1c[nH]cn1)NC(=O)[C@@H]1CCC(=O)N1)C(=O)N[C@@H](Cc1ccc(O)cc1)C(=O)N1CCC[C@H]1C(=O)NCC(N)=O [Compound 28] ([pGlu]HWSH[d2Nal]LYPG-NH2)")
"> 96"

###

- Measurement Target: GnRHR (Homo sapiens, UniProt P30968)
- Construct: host or cells: CHO-K1 (CHO-K1/GnRHR/Ga15)
- Sequence (P30968 1-328): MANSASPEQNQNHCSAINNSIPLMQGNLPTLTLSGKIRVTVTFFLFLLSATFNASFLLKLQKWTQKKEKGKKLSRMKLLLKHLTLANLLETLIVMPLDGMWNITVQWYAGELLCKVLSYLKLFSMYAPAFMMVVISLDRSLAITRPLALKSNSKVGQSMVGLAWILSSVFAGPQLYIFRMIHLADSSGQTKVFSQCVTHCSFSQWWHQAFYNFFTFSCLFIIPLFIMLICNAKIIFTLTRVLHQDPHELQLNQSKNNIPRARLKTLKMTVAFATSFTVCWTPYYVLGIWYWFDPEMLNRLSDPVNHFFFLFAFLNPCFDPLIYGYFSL
- Test Summary: Calcium assay in CHO-K1 cells (Genscript), FLIPR
- Type: cell-based
- Stated Conditions: CHO-K1/GnRHR/Ga15 cells, relative to agonist control, read-out: GNRHR Stimulation at 1 μM
Non-standard residues stand in square brackets, D forms with d. Residues, ends and D or L forms follow the SMILES beside them. dHis(τ-Bn) = N[C@H](Cc1cn(Cc2ccccc2)cn1)C(=O)O; pGlu = O=C1CC[C@@H](C(=O)O)N1
Recorded activation at 1 µM for the following molecules
Attribute Measured: activation at 1 µM (%)

>>> observed("CC(C)C[C@H](NC(=O)[C@@H](Cc1c[nH]c2ccccc12)NC(=O)[C@H](Cc1ccc(O)cc1)NC(=O)[C@H](CO)NC(=O)[C@H](Cc1c[nH]c2ccccc12)NC(=O)[C@H](Cc1c[nH]cn1)NC(=O)[C@@H]1CCC(=O)N1)C(=O)N[C@@H](Cc1ccc(O)cc1)C(=O)N1CCC[C@H]1C(=O)NCC(N)=O [Compound 14] ([pGlu]HWSY[dW]LYPG-NH2)")
78
>>> observed("CCNC(=O)[C@@H]1CCCN1C(=O)[C@H](Cc1ccc(O)cc1)NC(=O)[C@H](Cc1c[nH]c2ccccc12)NC(=O)[C@@H](Cc1cn(Cc2ccccc2)cn1)NC(=O)[C@H](Cc1ccc(O)cc1)NC(=O)[C@H](CO)NC(=O)[C@H](Cc1c[nH]c2ccccc12)NC(=O)[C@H](Cc1c[nH]cn1)NC(=O)[C@@H]1CCC(=O)N1 [Compound 62] ([pGlu]HWSY[dHis(τ-Bn)]WYP-NHEt)")
77
>>> observed("CCNC(=O)[C@@H]1CCCN1C(=O)[C@H](Cc1ccc(O)cc1)NC(=O)[C@H](CC(C)C)NC(=O)[C@@H](Cc1cn(Cc2ccccc2)cn1)NC(=O)[C@H](Cc1ccc(O)cc1)NC(=O)[C@H](CO)NC(=O)[C@H](Cc1c[nH]c2ccccc12)NC(=O)[C@H](Cc1c[nH]cn1)NC(=O)[C@@H]1CCC(=O)N1 [Compound 59] ([pGlu]HWSY[dHis(τ-Bn)]LYP-NHEt)")
85

###

compounds and their reported activation at 1 µM
- Measurement Target: GnRHR (Homo sapiens, UniProt P30968)
- Construct: host or cells: CHO-K1 (CHO-K1/GnRHR/Ga15)
- Sequence (P30968 1-328): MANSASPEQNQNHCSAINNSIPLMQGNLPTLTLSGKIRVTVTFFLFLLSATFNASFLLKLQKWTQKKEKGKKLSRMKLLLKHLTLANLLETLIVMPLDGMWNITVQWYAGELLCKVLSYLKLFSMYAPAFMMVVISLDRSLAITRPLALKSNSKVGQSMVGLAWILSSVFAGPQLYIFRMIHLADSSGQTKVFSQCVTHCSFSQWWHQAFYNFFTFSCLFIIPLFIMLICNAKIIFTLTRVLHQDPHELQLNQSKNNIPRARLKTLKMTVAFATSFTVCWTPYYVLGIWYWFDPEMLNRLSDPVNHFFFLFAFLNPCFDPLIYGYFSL
- Test Summary: Calcium assay in CHO-K1 cells (Genscript), FLIPR
- Assay type: cell-based
- Stated Conditions: CHO-K1/GnRHR/Ga15 cells, relative to agonist control, read-out: GNRHR Stimulation at 1 μM
Non-standard residues stand in square brackets, D forms with d. Residues, ends and D or L forms follow the SMILES beside them. *: point of attachment. d2Nal = N[C@H](Cc1ccc2ccccc2c1)C(=O)O; pGlu = O=C1CC[C@@H](C(=O)O)N1; tBu = CC(C)(C)*
Attribute Measured: activation at 1 µM (%)

>>> observed("CCNC(=O)[C@@H]1CCCN1C(=O)[C@H](CCCNC(=N)N)NC(=O)[C@H](CC(C)C)NC(=O)[C@@H](COC(C)(C)C)NC(=O)[C@H](Cc1c[nH]cn1)NC(=O)[C@H](CO)NC(=O)[C@H](Cc1c[nH]c2ccccc12)NC(=O)[C@H](Cc1c[nH]cn1)NC(=O)[C@@H]1CCC(=O)N1 [Compound 6] ([pGlu]HWSH[dS](tBu)LRP-NHEt)")
88
>>> observed("CC(C)C[C@H](NC(=O)[C@@H](Cc1ccc2ccccc2c1)NC(=O)[C@H](Cc1ccc(O)cc1)NC(=O)[C@H](CO)NC(=O)[C@H](Cc1c[nH]c2ccccc12)NC(=O)[C@H](Cc1c[nH]cn1)NC(=O)[C@@H]1CCC(=O)N1)C(=O)N[C@@H](Cc1ccc(O)cc1)C(=O)N1CCC[C@H]1C(=O)NCC(N)=O [Compound 25] ([pGlu]HWSY[d2Nal]LYPG-NH2)")
82
>>> observed("CC(C)C[C@H](NC(=O)CNC(=O)[C@H](Cc1ccc(O)cc1)NC(=O)[C@H](CO)NC(=O)[C@H](Cc1c[nH]c2ccccc12)NC(=O)[C@H](Cc1cnc[nH]1)NC(=O)[C@@H]1CCC(=O)N1)C(=O)N[C@@H](CCCNC(=N)N)C(=O)N1CCC[C@H]1C(=O)NCC(N)=O [Gonadorelin, reference compound]")
102
